Test system: 786-0
Assay: NCI tumour cell line growth inhibition, 48 h
Activity calls are given as the source filed them. Cut-off read from the data, not from the text of the source: active = GI50 up to about 1.1 µM and inactive = higher.
A correct response names exactly one class from True (active), False (inactive)

Solved cases (8 shown):
C1CC[C@H]2SSC3CCCC[C@H]3SSC2C1 (some centres undefined) :: False
CCOC(=O)C1C(c2ccc(OC)cc2)c2c(n[nH]c2O)CC1(C)O (centres undefined) :: False
CCC1(O)CC(OC2CC(N(C)C)C(OC3CC(O)C(OC4OC(C)C(=O)C=C4N)C(C)O3)C(C)O2)c2c(cc3c(c2O)C(=O)c2c(O)cccc2C3=O)C1C(=O)OC (centres undefined) :: True
O=C(c1cccc(OCc2ccccc2)c1OCc1ccccc1)N1CCSC1=S :: False
COc1cccc(CCn2c(N)c(-c3ccccc3)c3ccc([N+](=O)[O-])cc3c2=O)c1 :: False
CN(C)CCCOC(=O)C(O)(Cc1ccccc1)C1CC1 (centres undefined) :: False
CSc1cccc(-n2c3nc(=O)n(C)c(=O)c-3nc3ccccc32)c1 :: False
CN(CC(=O)N1CC(CCl)c2ccc([N+](=O)[O-])cc21)CC(=O)N1CC(CCl)c2ccc([N+](=O)[O-])cc21 (centres undefined) :: False

Query: What was the test verdict on CC(C)S(=O)(=O)ON1C(=O)c2ccc(N(C)C)cc2C1=O ?
Reply: False
